Every entry's value here was drawn from patent US11180487B2.

System: JJN-3 (NIK translocated) multiple myeloma cells
METHOD SUMMARY: Antiproliferative activity on JJN-3 multiple myeloma cells (CellTiter-Glo, 96 hr), Biological Assay C
Format: cell-based, human
DETAILS: Homo sapiens, JJN-3, 96 h, JJN-3 (NIK translocated) cells, averaged values, read-out: JJN-3 Proliferation inhibition (IC50 (nM))
OBSERVED PROPERTY: IC50 (nM)

INSERT INTO results (compound, observed_property, result_comparator, observed_measurement) VALUES
  ('Cc1c(CN2CC(F)C2)cc(C#N)cc1Nc1nccc(-c2cc(C#N)c3c(c2)[C@@](C)(CO)CN3)n1', 'IC50', '=', 30),
  ('CNC(=O)c1cc(Nc2nccc(-c3cc(C#N)c4c(c3)[C@@](C)(CO)CN4)n2)c(OC2CC2)cc1F', 'IC50', '=', 251),
  ('COCCOc1ccc(Cl)cc1Nc1nccc(-c2cc(C#N)c3c(c2)[C@](C)(CO)CN3)n1', 'IC50', '>', 10000);
